- assayedSystem: Kappa-type opioid receptor (Cavia porcellus, UniProt P41144)
- Sequence (P41144 whole entry): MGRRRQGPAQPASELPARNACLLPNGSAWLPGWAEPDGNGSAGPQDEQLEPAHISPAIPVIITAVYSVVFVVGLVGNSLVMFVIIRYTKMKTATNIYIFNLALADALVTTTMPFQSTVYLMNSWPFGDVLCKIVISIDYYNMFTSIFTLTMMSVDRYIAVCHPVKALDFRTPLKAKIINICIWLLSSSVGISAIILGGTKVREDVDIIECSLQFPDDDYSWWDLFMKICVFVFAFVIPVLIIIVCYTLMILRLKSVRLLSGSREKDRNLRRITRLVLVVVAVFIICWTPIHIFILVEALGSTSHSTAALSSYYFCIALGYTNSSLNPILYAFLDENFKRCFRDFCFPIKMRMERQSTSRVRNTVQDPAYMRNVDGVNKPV
- protocolSummary: Inhibition of [3H]U-69593 radioligand binding to Guinea pig opioid receptor kappa 1.
Below, each of the compounds is paired with its reported IC50 value.

>  <compound>
Oc1cccc(C23CCNC(Cc4[nH]c5ccccc5c42)C3)c1 (stereo unspecified)

>  <IC50>
> 10000 nM

$$$$

Next item in the queue.
Q) Name the recorded IC50 of the compound listed here: CCCN1CCC2(c3cccc(O)c3)CC1Cc1[nH]c3ccccc3c12 (stereo unspecified)
A) > 1000 nM
